Origin of measurements: ChEMBL document CHEMBL1201862

Tested on: Hs-578T
Assay: NCI tumour cell line growth inhibition, 48 h
Calls of active or inactive are those of the source. Rule as the data show it: active = GI50 up to about 1.1 µM and inactive = higher.
Measurement type: GI50

[[record]]
compound = "Cc1ccc2c(c1)C(=O)/C(=C\\c1ccccc1)CCS2(=O)=O"
data_value = "15.8 µM (inactive)"

[[record]]
compound = "CC1=C(O)C(=O)C2=C(C1=O)[C@@H]([C@@H](C)C/C=C/C(C)(C)O)CC[C@@H]2C"
data_value = "48.6 µM (inactive)"

[[record]]
compound = "CC(=O)C1=C(C)N(c2ccccc2)C2(O)C3=C(C(=O)c4ccccc4C3=O)C(O)=CC12Cl (stereo not given)"
data_value = "4.01 µM (inactive)"

[[record]]
compound = "O=C1OC2c3ccccc3C(=O)C2(c2ccccc2)N1c1ccccc1 (stereo not given)"
data_value = "> 200 µM (inactive)"

[[record]]
compound = "CCCCCCCCCCCCCCCCP(=O)(O)OP(=O)(O)OCC1OC(n2cnc3c(N)ncnc32)C(O)C1O (stereo not given)"
data_value = "26.4 µM (inactive)"


The recorded GI50 for entry CCOC(=O)CNC(=O)C(CSC(=O)N(O)c1ccc(Cl)cc1)NC(=O)CCC(N)C(=O)OCC (stereo not given) equals 1.9 µM (inactive)

The recorded GI50 for entry Cc1n[nH]c(=O)n1N1C(=O)c2ccccc2C1=O equals > 100 µM (inactive)

The recorded GI50 for entry O=Cc1ccc2c(c1)CC1(C2)Cc2ccc3c(c2C1)CCC3 (stereo not given) equals 7.41 µM (inactive)

The recorded GI50 for entry CCCCCCCC1c2cc3nc(cc4[nH]c(cc5nc(cc([nH]2)[C@@]1(C)CC(=O)N(C)C)C(C)=C5CCC(=O)O)c(CCC(=O)O)c4C)C=C3C (stereo not given in full) equals 18.7 µM (inactive)

The recorded GI50 for entry CCOC(=O)C(C)c1nc2cc(C(F)(F)F)ccc2[nH]c1=O (stereo not given) equals > 100 µM (inactive)
